# Species: Rattus norvegicus
# method_summary: Open TG-GATES - Regimen: Single
# Assay type: toxicity, organism-based, Sprague-Dawley
# Design: regimen Single, gender Male, age 6 weeks
# condition: in vivo, po, 0 mg/kg, 6 h, tissue Plasma, route gavage, dose level Control
endpoint_label: Cl (meq/L)
Just the number in meq/L, nothing appended.

CC[C@H]1[C@@H]2C[C@H]3[C@@H]4N(C)c5ccccc5[C@]45C[C@@H]([C@@H]2[C@H]5O)N3[C@@H]1O
103.4
CN(C)C(=N)N=C(N)N
104.8

Look at this compound and give its reported Cl. `O=NN(CCCl)C(=O)NC1CCCCC1`
103.4

Entry `CCC1(c2ccccc2)C(=O)NC(=O)NC1=O` please
103.8

Same read-out for CC(C)N(CCC(C(N)=O)(c1ccccc1)c1ccccn1)C(C)C (centres undefined) [DISOPYRAMIDE] ?
105.6

// next record ClC(Cl)(Cl)Cl [CARBON TETRACHLORIDE]
104
